Data origin: ChEMBL document CHEMBL2016451

Record form. Attribute: MIC. Fill in for each entry.
Tested on: Mycobacterium tuberculosis
Assay: Antimycobacterial activity against isoniazid-, rifampin-, ofloxacin-, ethambutol-, streptomycin-resistant Mycobacterium tuberculosis after 16 to 24 hrs by alamar blue assay
Format: functional

Please review the entries below; each comes with its answer.
CO[C@H]1/C=C/O[C@@]2(C)Oc3c(C)c(O)c4c(O)c(c(/C=N/N5CCN(C)CC5)c(O)c4c3C2=O)NC(=O)/C(C)=C\C=C\[C@H](C)[C@H](O)[C@@H](C)[C@@H](O)[C@@H](C)[C@H](OC(C)=O)[C@@H]1C	≥ 2 µg/mL
NNC(=O)c1ccncc1	≥ 2 µg/mL
CC[C@@H](CO)NCCN[C@@H](CC)CO	≥ 8 µg/mL
CN[C@@H]1[C@H](O[C@H]2[C@H](O[C@H]3[C@H](O)[C@@H](O)[C@H](N=C(N)N)[C@@H](O)[C@@H]3N=C(N)N)O[C@@H](C)[C@]2(O)C=O)O[C@@H](CO)[C@H](O)[C@H]1O	≥ 8 µg/mL

Here's the next entry for you.
I am curious: what MIC value has been reported for CC1COc2c(N3CCN(C)CC3)c(F)cc3c(=O)c(C(=O)O)cn1c23 (stereo not given) ?
≥ 4 µg/mL
